Biological target: MgCA (Malassezia globosa, UniProt A8Q1N3)
Construct: gene MGL_1814
Sequence (A8Q1N3 1-241): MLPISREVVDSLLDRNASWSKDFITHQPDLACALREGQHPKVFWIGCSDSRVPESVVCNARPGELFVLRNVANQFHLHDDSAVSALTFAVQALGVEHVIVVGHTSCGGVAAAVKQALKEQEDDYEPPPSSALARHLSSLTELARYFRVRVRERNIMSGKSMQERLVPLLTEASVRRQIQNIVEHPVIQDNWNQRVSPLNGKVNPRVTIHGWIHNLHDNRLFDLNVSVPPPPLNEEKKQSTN
Assay: stopped-flow CO2 hydrase assay
Assay type: biochemical
Threshold 5 µM. Ki below it: Y. Ki at it or above: N.

Compound: NS(=O)(=O)c1ccc(NC(=[Se])NC(=O)c2ccc(CCl)cc2)cc1
Label: Y
//
Compound: NS(=O)(=O)c1cccc(NC(=[Se])NC(=O)c2cc(Br)cc(OC(F)(F)F)c2)c1
Label: N
//
Compound: O=C(NC(=[Se])Nc1ccc(S(=O)(=O)Nc2nccs2)cc1)c1ccc([N+](=O)[O-])cc1 [10d]
Label: N
//
Compound: NS(=O)(=O)c1ccc(CCNC(=[Se])Nc2ccccc2F)cc1
Label: Y
//
Compound: O=C(NC(=[Se])Nc1ccc(S(=O)(=O)Nc2nccs2)cc1)c1ccc(I)cc1 [10f]
Label: N
//
Compound: NS(=O)(=O)c1ccc(NC(=[Se])NC(=O)c2ccc(I)cc2)cc1
Label: Y
//
Compound: COc1ccccc1NC(=[Se])NCCc1ccc(S(N)(=O)=O)cc1
Label: Y
//
Compound: NS(=O)(=O)c1ccc(O)c(NC(=[Se])NC(=O)c2ccc(CCl)cc2)c1 [11h]
Label: N

====

System: ATCC M. furfur 14521
Construct: ATCC 14521
Test: microbe, parasite or virus in culture
Details: Malassezia furfur

Molecule: NS(=O)(=O)c1ccc(C[Se]c2ccc(NC(=[Se])NC(=O)c3cc(Br)cc(OC(F)(F)F)c3)cc2)cc1
MIC / mg/L: 128

Molecule: NS(=O)(=O)c1ccc(CCNC(=[Se])Nc2ccccc2Cl)cc1
MIC / mg/L: 2.3

Molecule: NS(=O)(=O)c1ccc(O)c(NC(=[Se])NC(=O)c2ccc([N+](=O)[O-])cc2)c1 [11c]
MIC / mg/L: 5.3

Molecule: NS(=O)(=O)c1ccc(CCNC(=[Se])NC(=O)c2ccc(I)cc2)cc1
MIC / mg/L: 3.3

====

Tested on: M. pachydermatis DSMZ 6172
Construct: DSMZ 6172 (CDC 16334)
Assay: microbe, parasite or virus in culture
Design: broth microdilution MIC, M. pachydermatis and Candida, 35 °C
Conditions: Malassezia pachydermatis, DSMZ6172
# label = 1 if MIC < 3 µg/mL else -1

Compound: NS(=O)(=O)c1ccc(CCNC(=[Se])NC(=O)c2ccc(/N=N/c3ccccc3)cc2)cc1
Measured on: M. pachydermatis DSMZ 6172
Label: -1

Compound: NS(=O)(=O)c1ccc(NC(=[Se])NC(=O)c2ccc(Br)cc2F)cc1
Measured on: M. pachydermatis DSMZ 6172
Label: 1

Compound: CCCCCCCc1ccc(C(=O)NC(=[Se])Nc2ccc(S(=O)(=O)Nc3nccs3)cc2)cc1 [10c]
Measured on: M. pachydermatis DSMZ 6172
Label: 1

Compound: O=C(NC(=[Se])Nc1ccccc1F)c1ccccc1 [16c]
Measured on: M. pachydermatis DSMZ 6172
Label: 1

Compound: NS(=O)(=O)c1ccc(O)c(NC(=[Se])NC(=O)c2ccc(Br)cc2F)c1 [11g]
Measured on: M. pachydermatis DSMZ 6172
Label: -1

Compound: NS(=O)(=O)c1cccc(NC(=[Se])NC(=O)c2ccc(F)cc2)c1
Measured on: M. pachydermatis DSMZ 6172
Label: 1

Compound: NS(=O)(=O)c1ccc(NC(=[Se])NC(=O)c2ccc(CCl)cc2)cc1
Measured on: M. pachydermatis DSMZ 6172
Label: -1

Compound: O=C(NC(=[Se])Nc1ccc(S(=O)(=O)Nc2nccs2)cc1)c1ccccc1 [10a]
Measured on: M. pachydermatis DSMZ 6172
Label: 1

Compound: O=C(Nc1ccccc1)Nc1ccccc1F [14c]
Measured on: M. pachydermatis DSMZ 6172
Label: -1

Compound: O=C(NC(=[Se])Nc1ccccc1)c1cc(Br)cc(OC(F)(F)F)c1 [16b]
Measured on: M. pachydermatis DSMZ 6172
Label: 1

Compound: NS(=O)(=O)c1ccc(O)c(NC(=[Se])NC(=O)c2ccc(CCl)cc2)c1 [11h]
Measured on: M. pachydermatis DSMZ 6172
Label: -1

Compound: NS(=O)(=O)c1cccc(NC(=[Se])NC(=O)c2ccccc2)c1
Measured on: M. pachydermatis DSMZ 6172
Label: 1

Compound: NS(=O)(=O)c1cccc(NC(=[Se])NC(=O)c2ccc(I)cc2)c1
Measured on: M. pachydermatis DSMZ 6172
Label: -1

Compound: NS(=O)(=O)c1ccc(CCNC(=[Se])Nc2ccc(I)cc2)cc1
Measured on: M. pachydermatis DSMZ 6172
Label: 1

Compound: NS(=O)(=O)c1ccc(NC(=[Se])Nc2ccccc2F)cc1
Measured on: M. pachydermatis DSMZ 6172
Label: -1

Compound: O=C(NC(=[Se])Nc1c(F)c(F)cc(F)c1F)c1ccccc1 [16d]
Measured on: M. pachydermatis DSMZ 6172
Label: 1

Compound: NS(=O)(=O)c1cccc(NC(=[Se])NC(=O)c2ccc(Br)cc2F)c1
Measured on: M. pachydermatis DSMZ 6172
Label: -1

Compound: NS(=O)(=O)c1ccc(NC(=[Se])NC(=O)c2ccc(I)cc2)cc1
Measured on: M. pachydermatis DSMZ 6172
Label: 1

Compound: NS(=O)(=O)c1ccc(NC(=[Se])NC(=O)c2ccc([N+](=O)[O-])cc2)cc1
Measured on: M. pachydermatis DSMZ 6172
Label: 1

Compound: CC(=O)Oc1ccccc1C(=O)NC(=[Se])Nc1ccc(S(N)(=O)=O)cc1
Measured on: M. pachydermatis DSMZ 6172
Label: -1

Compound: NS(=O)(=O)c1ccc(O)c(NC(=[Se])NC(=O)c2ccc(I)cc2)c1 [11d]
Measured on: M. pachydermatis DSMZ 6172
Label: -1

Compound: CCCCCCCc1ccc(C(=O)NC(=[Se])Nc2cccc(S(N)(=O)=O)c2)cc1
Measured on: M. pachydermatis DSMZ 6172
Label: 1

Compound: NS(=O)(=O)c1ccc(CCNC(=[Se])Nc2ccc3ccccc3c2)cc1
Measured on: M. pachydermatis DSMZ 6172
Label: 1

Compound: NS(=O)(=O)c1ccc(C[Se]c2ccc(NC(=[Se])NC(=O)c3cc(Br)cc(OC(F)(F)F)c3)cc2)cc1
Measured on: M. pachydermatis DSMZ 6172
Label: -1

Compound: NS(=O)(=O)c1ccc(NC(=[Se])NC(=O)c2cc(Br)cc(OC(F)(F)F)c2)cc1
Measured on: M. pachydermatis DSMZ 6172
Label: 1

Compound: C[C@@H]1[C@H](O)[C@@H](C)/C=C/C=C/C=C/C=C/C=C/C=C/C=C/[C@H](O[C@@H]2O[C@H](C)[C@@H](O)[C@H](N)[C@@H]2O)C[C@@H]2O[C@](O)(C[C@@H](O)C[C@@H](O)[C@H](O)CC[C@@H](O)C[C@@H](O)CC(=O)O[C@H]1C)C[C@H](O)[C@H]2C(=O)O
Measured on: M. pachydermatis DSMZ 6172
Label: 1

Compound: NS(=O)(=O)c1ccc(NC(=[Se])NC(=O)c2ccc(F)cc2)cc1
Measured on: M. pachydermatis DSMZ 6172
Label: 1

Compound: CC(=O)Oc1ccccc1C(=O)NC(=[Se])Nc1cc(S(N)(=O)=O)ccc1O [11e]
Measured on: M. pachydermatis DSMZ 6172
Label: 1

Compound: NS(=O)(=O)c1ccc(NC(=[Se])NC(=O)c2ccc(/N=N/c3ccccc3)cc2)cc1
Measured on: M. pachydermatis DSMZ 6172
Label: 1

Compound: NS(=O)(=O)c1ccc(NC(=[Se])NC(=O)c2ccccc2)cc1
Measured on: M. pachydermatis DSMZ 6172
Label: 1

Compound: NS(=O)(=O)c1ccc(NC(=[Se])Nc2cccc(C(F)(F)F)c2)cc1
Measured on: M. pachydermatis DSMZ 6172
Label: -1

Compound: CCCCCCCc1ccc(C(=O)NC(=[Se])Nc2cc(S(N)(=O)=O)ccc2O)cc1 [11b]
Measured on: M. pachydermatis DSMZ 6172
Label: -1

Compound: NS(=O)(=O)c1ccc(CCNC(=[Se])NC(=O)c2ccc3c(c2)OCO3)cc1
Measured on: M. pachydermatis DSMZ 6172
Label: 1

Compound: Cc1cccc(C(=O)NC(=[Se])Nc2cc(S(N)(=O)=O)ccc2O)c1 [11j]
Measured on: M. pachydermatis DSMZ 6172
Label: 1

Compound: NS(=O)(=O)c1ccc(NC(=[Se])NC(=O)c2ccc3c(c2)OCO3)cc1
Measured on: M. pachydermatis DSMZ 6172
Label: 1

Compound: O=C(NC(=[Se])Nc1ccccc1)c1ccccc1 [16a]
Measured on: M. pachydermatis DSMZ 6172
Label: 1

====

Target: MgCA (Malassezia globosa, UniProt A8Q1N3)
Construct: gene MGL_1814
Experiment: biochemical
Parameters: stopped-flow CO2 hydration assay, phenol red absorbance at 557 nm, 15 min preincubation, Cheng-Prusoff KI
Readout type: Ki (µM)

Compound: Cc1cccc(C(=O)NC(=[Se])Nc2cc(S(N)(=O)=O)ccc2O)c1 [11j]
Cmp: =
Obs value: 5.64
//
Compound: Fc1ccccc1NC(=S)Nc1ccccc1 [14d]
Cmp: >
Obs value: 10
//
Compound: NS(=O)(=O)c1ccc(NC(=O)Nc2ccccc2F)cc1 [14a]
Cmp: =
Obs value: 6.74
//
Compound: O=C(NC(=[Se])Nc1ccccc1)c1ccccc1 [16a]
Cmp: >
Obs value: 10
//
Compound: NS(=O)(=O)c1ccc(O)c(NC(=[Se])NC(=O)c2cc(Br)cc(OC(F)(F)F)c2)c1 [11i]
Cmp: =
Obs value: 6.25
